Measured Catalapsy scores by item
Tested on: catalepsy
Assay Comment: catalepsy test in rats
Type: in vivo, CDBR rats
Run Conditions: dose 10 mg/kg ip, sum of 8 readings over 4 hours

Illustrative cases are given below, each with its answer.
Compound: COc1cc2c(cc1OC)C(c1ccc(N)c(C)c1)=NN(c1nncs1)[C@H](C)C2 [Example 110]
Tested Target: catalepsy
Catalapsy scores: 10:0.375

Compound: CN1CCN(C2=Nc3cc(Cl)ccc3Nc3ccccc32)CC1 [Clozapine, reference compound]
Tested Target: catalepsy
Catalapsy scores: 10:0.14

Compound: CNC(=O)N1N=C(c2ccc(N)cc2)c2cc(OC)c(OC)cc2C[C@H]1C [Example 121]
Tested Target: catalepsy
Catalapsy scores: 10:0

Next up:
Measured Catalapsy scores of CN(C)CCCN1c2ccccc2Sc2ccc(Cl)cc21 [Chlorpromazine, reference compound] : 10:8.7
